# Test system: NCI-H23
# PROTOCOL SUMMARY: NCI in vitro disease-oriented tumor cells screen
# Type: cell-based, human
# RUN CONDITIONS: Homo sapiens; Non-Small Cell Lung Cancer NCI-H23; Table 2 (numbering of Examples 1-13); average of at least two testings; read-out: Cytotoxicity log GI50 (converted)
Field: label. Allowed values: label 1 (GI50 < 20 nM) or label 0 (GI50 >= 20 nM).

Ask: Is 20 nM strictly greater than the molecule's reported GI50? molecule: CC(=O)OC(C)c1cc2c(s1)C(=O)c1c(C(C)OC(C)=O)csc1C2=O (stereo not shown)
Reply: label 0

Ask: Criterion: GI50 strictly below 20 nM. Is it met by CC(=O)OC(C)c1cc2c(s1)C(=O)c1sccc1C2=O (stereo not shown) ?
Reply: label 0

Ask: Bench note: check whether CC(=O)c1cc2c(s1)C(=O)c1c(C(C)=O)csc1C2=O shows GI50 below 20 nM
Reply: label 0

Ask: GI50 under 20 nM? Item: CC(=O)OC(C)c1cc2c(s1)C(=O)c1ccsc1C2=O (stereo not shown)
Reply: label 1

Ask: A record lists CC(=O)c1cc2c(s1)C(=O)c1sccc1C2=O . Is its GI50 below 20 nM?
Reply: label 1

Ask: GI50 under 20 nM? Item: CC(O)c1cc2c(s1)C(=O)c1sccc1C2=O (stereo not shown)
Reply: label 1

Ask: Bench note: check whether CC(O)c1cc2c(s1)C(=O)c1c(C(C)O)csc1C2=O (stereo not shown) shows GI50 below 20 nM
Reply: label 0
